# System: SR
# measurement_notes: NCI tumour cell line growth inhibition, 48 h
The source made the active and inactive calls. Rule as the data show it: active = GI50 up to about 1.1 µM and inactive = higher.
// one of True for active, False for inactive, no free text

Entry O=C(/C=C/c1ccccc1Cl)c1cccc2ccccc12 : call = ?
False

Continuing:
Outcome? COc1ccc(/N=C/c2ccc(N(CCC#N)S(=O)(=O)c3ccccc3)cc2)cc1
False

Hi team, can someone confirm the assay call for CCN(CC)CCCCC1CCN(CC(=O)N2c3ccccc3NC(=O)CC2C)CC1 (centres undefined) ?
False

Test call, this molecule: O=c1[nH]c2c(c(=O)[nH]1)SSC2
True

Name the outcome recorded for COc1ccccc1CC(=O)C(O)(C(F)(F)F)C(F)(F)F in the assay.
False

Please state the recorded outcome for this molecule: CC(C)(C)OC(=O)n1c(-c2ccccc2F)cc(=O)c2cc3c(cc21)OCO3
True

// outcome(item) with item = Cc1ccc(NC(=S)NNC(=O)c2cc(-c3ccccc3)nc3ccccc23)cc1
False
